test system: T47D; test: CellTiterGlo luminescent cell viability assay, T47D; details: Homo sapiens, 72 h, read-out: Cytotoxicity IC50 T47D, 72 h incubation, CellTiter-Glo, mean ± SD
assay.metric: IC50 (µM)

1) CC(C)C1=CC2=C(C(=O)C1=O)[C@@]1(C)CCC[C@@](C)(CN3C(=O)c4ccccc4C3=O)[C@@H]1CC2 :: 18.7
2) COC(=O)[C@]1(C)CCC[C@]2(C)c3c(cc(C(C)C)c(O)c3O)CC[C@@H]12 [Compound 9, Methyl 11,12-Dihydroxy-dehydroabietate] :: 14.4
3) COC(=O)[C@]1(C)CCC[C@]2(C)C3=C(C=C(C(C)C)C(=O)C3=O)CC[C@@H]12 :: 14.1
4) CC(C)c1cc2c(c(O)c1O)[C@@]1(C)CCC[C@@](C)(CN3C(=O)c4ccccc4C3=O)[C@@H]1CC2 :: 8.17
